These data points were gathered from ChEMBL document CHEMBL1782023.

Tested on: MDA-MB-231
Test: Cytotoxicity against human MDA-MB-231 cells after 48 hrs by Alamar blue assay
Type: functional, cell-based
Conditions: MDA-MB-231, 48 h
readout kind: IC50 (µM)
One number for each entry, in µM.

{"columns": ["molecule smiles", "readout kind", "unit tag", "val"],
 "data": [
  ["C=C1[C@@H](c2ccc(O)c(OC)c2)O[C@@H](c2ccc(O)c(OC)c2)[C@@]12CCC1=C(C2)[C@H](c2ccc(O)c(OC)c2)O[C@@H]1c1ccc(O)c(OC)c1", "IC50", "µM", 18],
  ["C=C1[C@H](c2ccc(O)c(OC)c2)O[C@H](c2ccc(O)c(OC)c2)[C@@]12CCC1=C(C2)[C@@H](c2ccc(O)c(OC)c2)O[C@H]1c1ccc(O)c(OC)c1", "IC50", "µM", 18],
  ["C=C1[C@@H](c2ccc(O)c(OC)c2)O[C@@H](c2ccc(O)c(OC)c2)[C@@]12CCC1=C(C2)[C@@H](c2ccc(O)c(OC)c2)O[C@H]1c1ccc(O)c(OC)c1", "IC50", "µM", 18]
]}

Q: Which IC50 is listed for `C=C1[C@@H](c2ccc(O)c(OC)c2)O[C@@H](c2ccc(O)c(OC)c2)[C@@]12CCC1=C(C2)[C@@H](c2ccc(O)c(OC)c2)O[C@@H]1c1ccc(O)c(OC)c1` ?
A: 18
